Molecular target: DHRS13_C174 (Homo sapiens, UniProt Q6UX07)
Construct: endogenous in cells; host or cells: 22Rv1
Sequence (Q6UX07 26-377): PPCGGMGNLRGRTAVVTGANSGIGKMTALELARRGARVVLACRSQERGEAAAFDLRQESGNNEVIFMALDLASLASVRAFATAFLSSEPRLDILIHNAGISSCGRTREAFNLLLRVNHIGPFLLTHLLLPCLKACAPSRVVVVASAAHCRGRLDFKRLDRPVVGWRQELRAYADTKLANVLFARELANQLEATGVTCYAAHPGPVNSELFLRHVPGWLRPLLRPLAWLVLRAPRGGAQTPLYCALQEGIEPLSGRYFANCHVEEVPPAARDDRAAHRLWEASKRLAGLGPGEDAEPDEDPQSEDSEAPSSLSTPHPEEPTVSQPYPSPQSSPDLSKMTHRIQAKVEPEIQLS
Assay: IA-DTB cysteine engagement
Type: binding
Settings: 22Rv1 cells, 20 μM probe, 1 h, relative to DMSO
Protocol: Sample preparation: Cells (adherent: 15 cm dishes, suspension: 2 million cells/mL) were treated with electrophilic probes in situ for indicated times and concentrations, washed with ice-cold PBS, and flash frozen in liquid nitrogen. […] Whole cell lysates protein content was measured using a standard DC protein assay (Bio-Rad) and 500 μL (2 mg/mL protein content) were treated with 5 μL of 10 mM 1A-DTB (in DMSO) for 1 h at ambient temperature with occasional vortexing. […]
In this section we review reported % engagement DHRS13_C174 values for a set of molecules.
measured parameter: % engagement DHRS13_C174 (%)

INSERT INTO assay_data (molecule, value_measured) VALUES
  ('C=CC(=O)N1C[C@H](c2ccc(Br)cc2)[C@@H]1C(=O)Nc1cccc2cccnc12', 69.75),
  ('C=CC(=O)N1C[C@H](c2ccc(Br)cc2)[C@H]1C(=O)Nc1cccc2cccnc12 [MY-3A]', 42),
  ('C=CC(=O)N1C[C@@H](c2ccc(Br)cc2)[C@H]1C(=O)Nc1cccc2cccnc12', 60.25),
  ('C=CC(=O)N1C[C@H](c2ccc(Br)cc2)[C@H]1C(=O)Nc1cccc2cccnc12 [MY-3B]', 61.75);
